Value source: the RNAGym collection of RNA variant scans (doi:10.7554/elife.80360)

B1: Hairpin Ribozyme (parent)
chain: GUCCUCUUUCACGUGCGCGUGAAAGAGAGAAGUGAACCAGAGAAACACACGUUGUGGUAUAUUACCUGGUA

Variants of: B1
Assay: self-cleavage, relative activity (ratio to wild type); higher = more cleavage; co-transcriptional
MEASUREMENT KIND: self-cleavage
Answers are plain numbers.

Here's what some known entries look like.
| CONSTRUCT SEQUENCE | self-cleavage |
| --- | --- |
| GUCCUCUUUCACGUGCGGGUGAAAGAGAGAAGUGAACCAGAGCAACACACGUUGUGGUAUAUUACCUGGUA [C18G A43C] | 0.122 |
| GUCCUCUUUCACGUUCGCGUGAAAGAGAGAAGUUAACCAGAGAAACACACGUUGUGGUAUAUUACCUGGUA [G15U G34U] | 1.46 |
| GUCCUCUUUCACGUGCGCGUGAAAGAGAGAAGUGAUCCAGAGAAACACACCUUGUGGUAUAUUACCUGGUA [A36U G51C] | 0.446 |
| GUCCUCUUUCACGUGAGCGUGAAAGAGAGAAGUGAACCAGAGAGACACACGUUGUGGUAUAUUACCUGGUA [C16A A44G] | 0.153 |
| GUCCUCUUUCACGUGCGCGUGAAAGAGACAAGUGAACCAGAGAAACACACGUUGUGGUAUAUGACCUGGUA [G29C U63G] | 0.0807 |

// batch mode: one self-cleavage value per listed entry
1. GUCCUCUUUCACGUUCGCGUGAAAGAGAGAAGUGAAACAGAGAAACACACGUUGUGGUAUAUUACCUGGUA [G15U C37A]
2. GUCCUCUUUCACGUGCGCGUGAAAGAGCGAAGUGAACCAGAGAAACACACGUUGUGGUAAAUUACCUGGUA [A28C U60A]
3. GUGCUCUUUCACGCGCGCGUGAAAGAGAGAAGUGAACCAGAGAAACACACGUUGUGGUAUAUUACCUGGUA [C3G U14C]
4. GCCCUCUUUCACGUCCGCGUGAAAGAGAGAAGUGAACCAGAGAAACACACGUUGUGGUAUAUUACCUGGUA [U2C G15C]
5. GUCCUCUUUCACGUGCGCGUGAAAGAGAGAAGGGAACCAGAGAAACACACGUUAUGGUAUAUUACCUGGUA [U33G G54A]

A:
1. 0.386
2. 0.448
3. 0.238
4. 0.243
5. 0.111

// batch mode: one self-cleavage value per listed entry
1. GUCCUCUUUCACGUGCGCGUGAAAGAGAGAAGUGGACCAGAGCAACACACGUUGUGGUAUAUUACCUGGUA [A35G A43C]
2. GUCCUCUUUCACGUGCGCCUGAAAGAGAGAAGUGAACCAGAGAAACACACGUCGUGGUAUAUUACCUGGUA [G19C U53C]
3. AUCCUCUUUCACGUGCGCGUGAAAGAGAGAAGUGAACCAGAGAAACACACGUUGUGGUAGAUUACCUGGUA [G1A U60G]
4. GUCUUCUUUCACGUGCGCAUGAAAGAGAGAAGUGAACCAGAGAAACACACGUUGUGGUAUAUUACCUGGUA [C4U G19A]

A:
1: 0.118; 2: 0.679; 3: 0.194; 4: 0.327

// batch mode: one self-cleavage value per listed entry
1. GUCCUCUUACACGUGAGCGUGAAAGAGAGAAGUGAACCAGAGAAACACACGUUGUGGUAUAUUACCUGGUA [U9A C16A]
2. GUCCUCUUUCACGAGCGCGUGAAAGAGAGAAGUGUACCAGAGAAACACACGUUGUGGUAUAUUACCUGGUA [U14A A35U]
3. GUCCUCUUUCACGUGCGCGUGAAAGAGAGAAGUGAACCAAAGAAACACACGCUGUGGUAUAUUACCUGGUA [G40A U52C]
4. GACCUCUUUCACGUGCGCGUAAAAGAGAGAAGUGAACCAGAGAAACACACGUUGUGGUAUAUUACCUGGUA [U2A G21A]
5. GUCCUCUUUCACGUGCGCGUGAAAGAGAGAAGUGAACCAGAGAAACACACGUUGUGGAAUAUUAUCUGGUA [U58A C65U]
6. GUCCCCUUUCACGUGCGCGUGAAAGAGAGAAGUGAACCAGAGAAACACACGUUGUGGUAUAUUACCUGGUU [U5C A71U]

A:
0.626
0.656
0.347
0.204
0.203
0.564

// batch mode: one self-cleavage value per listed entry
1. GUCCUCUUUCACGUGCGCGUGAAAGAGAGAAGUGAGCCAGACAAACACACGUUGUGGUAUAUUACCUGGUA [A36G G42C]
2. GUCCUCUUUCACGUGCACGUGAAAGAGAGAAGUGAACCAGAGAAACACACGUUGUGGUAUAUUACCUGGUA [G17A]

A:
0.347
1.01
